- tgt: fowlpox virus resolvase (Fowlpox virus, UniProt Q9J546)
- Sequence (Q9J546 1-156): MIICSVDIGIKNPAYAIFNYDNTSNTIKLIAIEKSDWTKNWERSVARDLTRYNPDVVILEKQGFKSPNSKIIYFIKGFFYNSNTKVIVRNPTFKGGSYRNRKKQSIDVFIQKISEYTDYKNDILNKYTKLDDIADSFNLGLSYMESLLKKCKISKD
metric: pIC50
Give bare numbers, as −log10 of the molar value.

Known results for molecules:
smiles-record: CCOC(=O)c1c(O)c2cc(-c3cccc(OC)n3)cnc2n(O)c1=O
pIC50: 4.96
--
smiles-record: CCOC(=O)c1c(O)c2cc(CCc3ccc(C(F)(F)F)cc3)cnc2n(O)c1=O
pIC50: 4.85

// below: pIC50 requested for another molecule
Data request: What does the record list as pIC50 for `O=c1c(-c2ccccc2)c(O)c2cc(CCc3ccc(C(F)(F)F)cc3)cnc2n1O` ?
Data returned: 5.52
